Item-by-item account of PBM binding z-score
System: PPARg:RXRa DBDmut IVT, anti-RXR (DBD mutation: RXRa K156A/R161A, NR concentration 270 nM, RXRa partner concentration 90 nM)
ASSAY_TEXT: PBM binding z-score (relative to random genomic background probes); higher = stronger binding; sequences stand for … in GC…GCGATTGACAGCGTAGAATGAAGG
# respond with the number and nothing more

Example results:
{"QUERY_SEQUENCE": "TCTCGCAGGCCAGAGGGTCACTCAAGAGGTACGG", "PBM binding z-score": 0.998}
{"QUERY_SEQUENCE": "AGAACGAGGGAACGCTGAGTTGATAGCAGAGTAG", "PBM binding z-score": 0.157}

Q. What value of PBM binding z-score has been reported for the following sequence? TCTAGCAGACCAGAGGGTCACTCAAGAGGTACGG
A. 0.667

Q. What value of PBM binding z-score has been reported for the following sequence? CAAGCTAGGTCACGAAAGGTCAAAGTCGAATGAC
A. 5.1

Q. What value of PBM binding z-score has been reported for the following sequence? CCTATTAGTTGGCCATAAGGGCAACCGAAGCTCG
A. 0.405
